test.readout: melting point

Here's what some known entries look like.
[
  {
    "smiles.entry": "CC(C)n1c(-c2ccc(N(S(C)(=O)=O)S(C)(=O)=O)cc2)c(C#N)c2ccc(OC(F)F)cc21",
    "melting point": "232 to 234 °C"
  },
  {
    "smiles.entry": "CC(C)NC(=O)COc1ccc(-c2c(C#N)c3ccc(OC4CCOCC4)cc3n2C2CCC2)cc1",
    "melting point": "152 to 153 °C"
  },
  {
    "smiles.entry": "COc1ccnc(Oc2ccc3c(C#N)c(-c4ccc(NC(=O)NC(C)C)cc4)n(C4CCC4)c3c2)n1",
    "melting point": "221 to 225 °C"
  }
]

Could you now look at the following molecule, please?
Task item: I am curious: what melting point value has been reported for CS(=O)(=O)Nc1ccc(-c2c(C#N)c3ccc(N4CCCCC4)cc3n2C2CCC2)cc1 ?
Reply: 229 to 233 °C

Entry source: patent US7772271B2
